This section presents compounds with their documented half-life values.
Assay info: Pharmacokinetic evaluation in C57 mice
Assay type: in vivo
Condition description: both sexes, mouse, plasma, iv, 1.0 mg/kg, read-out: Half-life T½ (converted)
Write it as a number; the unit h goes unstated.

Query COc1cccc(OC)c1S(=O)(=O)Nc1noc2cc(Cn3cccn3)c3c(c12)OCCC3 yields half-life of 18.4

Reported half-life of COc1ccccc1S(=O)(=O)Nc1noc2cc(Cn3cccn3)c3c(c12)OCCC3 : 49

* * *

Assay info: Pharmacokinetic evaluation in C57 mice
Assay type: in vivo
Condition description: both sexes, mouse, plasma, po, i.g., 2.0 mg/kg, read-out: Half-life T½ (converted)
Protocol: C57 mice were used as test animals. After intragastric (i.g.)/intravenous (i.v.) administration of the compounds of the present disclosure to C57 mice, the plasma concentrations at different time points were measured by the LC/MS/MS method. The pharmacokinetic behavior of the compounds of the present disclosure in C57 mice was studied and their pharmacokinetic profiles were evaluated. Compound 2 and compound 3. […]
Quick reference for half-life among some compounds
# unit: h | format: bare number

COc1ccccc1S(=O)(=O)Nc1noc2cc(Cn3cccn3)c3c(c12)OCCC3 [Compound 3]    58.3

Given item COc1cccc(OC)c1S(=O)(=O)Nc1noc2cc(Cn3cccn3)c3c(c12)OCCC3 [Compound 2] , the value recorded as its half-life is 29.7
